system.name: CRFR2 (Rattus norvegicus)
Construct: A7r5 cells, which express CRFR2; endogenous in cells; host or cells: A7r5 cells
Sequence (P47866 1-431 isoform P47866-2): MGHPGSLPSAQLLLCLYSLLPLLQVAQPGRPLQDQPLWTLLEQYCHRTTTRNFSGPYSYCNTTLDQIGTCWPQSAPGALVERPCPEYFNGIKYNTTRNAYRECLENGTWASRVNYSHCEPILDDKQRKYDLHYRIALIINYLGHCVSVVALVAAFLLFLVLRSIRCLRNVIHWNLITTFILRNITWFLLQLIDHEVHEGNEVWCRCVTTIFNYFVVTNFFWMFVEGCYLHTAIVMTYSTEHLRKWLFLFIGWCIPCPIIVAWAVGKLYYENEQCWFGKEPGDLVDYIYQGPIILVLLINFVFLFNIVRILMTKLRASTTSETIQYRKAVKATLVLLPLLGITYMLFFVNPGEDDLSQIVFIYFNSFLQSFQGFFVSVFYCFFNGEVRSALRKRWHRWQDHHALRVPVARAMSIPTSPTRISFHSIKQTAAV
method.notes: stimulation of cAMP accumulation in A7r5 cells
Assay type: cell-based
assay.endpoint: EC50 (nM)
The figure you give is taken to be in nM; do not add the unit.

substance | EC50 [nM]
IPTFQLRPQNSPQTTPRPAASESPSAAPTWPWAAQSHCSPTRHPGSRIVLSLDVPIGLLQILLEQARARAAREQATTNARILARV-NH2 [hUcn 2 prohormone] | 2.3

Moving on to the next substance.
Recall the recorded EC50 for TPIPTFQLLPQNSLETTPSSVTSESSSGTTTGPSASWSNSKASPYLDTRVILSLDVPIGLLRILLEQARYKAARNQAATNAQILAHV-NH2 [mUcn 2 prohormone] with CRFR2 (Rattus norvegicus) and state it.
0.53

* * *

system.name: CRFR2 (Rattus norvegicus)
Construct: A7r5 cells, which express CRFR2; endogenous in cells; host or cells: A7r5 cells
method.notes: stimulation of cAMP accumulation in A7r5 cells
Type: cell-based
test.conditions: A7r5 cells; EC50s calculated based on protein determination by immunoassay and chromatographic peak height; read-out: cAMP A7r5 (EC50)
No end group written: not given here. *: point of attachment. Acm = CC(=O)NC*
Rule for this label: MET means EC50 is less than 6 nM; NOT MET means EC50 is at least 6 nM.

Worked cases, answers included:
substance | assigned.class
HPGSRIVLSLDVPIGLLQILLEQARARAAREQATTNARILARV-NH2 [SRP (HPGSR-hUcn 2)] | MET
C(Acm)SPTRHPGSRIVLSLDVPIGLLQILLEQARARAAREQATTNARILARVGHC(Acm)-OH [[Cys^1,51 (Acm)]-hUcn 2(1-51)-OH)] | NOT MET

Bench note: check whether IVLSLDVPIGLLQILLEQARARAAREQATTNARILARVG-OH [hUcn 2-G-OH] shows EC50 below 6 nM
NOT MET

Bench note: check whether IVLSLDVPIGLLQILLEQARARAAREQATTNARILARVGH-OH [hUcn 2-GH-OH] shows EC50 below 6 nM
MET

Bench note: check whether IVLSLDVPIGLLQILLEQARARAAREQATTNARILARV-OH [hUcn 2-OH] shows EC50 below 6 nM
NOT MET

Bench note: check whether IVLSLDVPIGLLQILLEQARARAAREQATTNARILARVGHC-OH [hUcn 2-GHC-OH] shows EC50 below 6 nM
NOT MET
